# Procedure Summary: Selectivity ratio relative to atropine is [(atropine IC50 value for pancreas)/(compound IC50 value for pancreas)] / [(atropine KB value for ileum) /(compound KB value for ileum)]
# Assay type: tissue-based
Listed here: items and their measured Selectivity.
// no unit, no text: just the number

CCN(CC)CCCCCOC(=O)C(C)(c1ccccc1)C1CCCCC1 (centres undefined) ... 11.5

# input # lookup: Selectivity of CCN(CC)CCCOC(=O)C(C)(c1ccccc1)C1CCCCC1 (centres undefined)
# output 19.1

# input And the next one, CN(C)CCCOC(=O)C(C)(c1ccccc1)C1CCCCC1 (centres undefined) ?
# output 30.8

# input Also CCN(CC)CCOC(=O)C(C)(c1ccccc1)C1CCCCC1 (centres undefined) , if possible.
# output 16.7

* * *

# Experimental Target: Muscarinic acetylcholine receptor M1 (Homo sapiens)
# Sequence (P11229 whole entry): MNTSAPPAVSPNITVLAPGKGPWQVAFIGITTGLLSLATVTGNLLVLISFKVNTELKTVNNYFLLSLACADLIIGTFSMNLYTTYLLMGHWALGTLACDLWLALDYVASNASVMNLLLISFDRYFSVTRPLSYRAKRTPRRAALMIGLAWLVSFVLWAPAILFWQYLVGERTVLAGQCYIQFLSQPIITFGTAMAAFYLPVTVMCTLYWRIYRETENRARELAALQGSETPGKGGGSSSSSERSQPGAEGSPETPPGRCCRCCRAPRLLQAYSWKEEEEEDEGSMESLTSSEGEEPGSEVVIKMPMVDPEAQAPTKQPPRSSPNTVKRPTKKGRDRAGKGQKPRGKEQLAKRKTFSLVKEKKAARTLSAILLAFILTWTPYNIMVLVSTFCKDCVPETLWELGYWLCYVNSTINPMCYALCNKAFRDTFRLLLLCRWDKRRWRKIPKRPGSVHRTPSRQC
# Procedure Summary: Antimuscarinic potency and subset specificity was characterised by its inhibition of the [3H]NMS Binding to Muscarinic acetylcholine receptor M1 subtype
Parameter: pKi
Remember the convention: pKi equals -log10 of concentration in molar.

Answered examples (5):
CCN(CC)CCCOC(=O)C(C)(c1ccccc1)C1CCCCC1 (stereo unspecified) ... 8.54
CCN(CC)CCCCCOC(=O)C(C)(c1ccccc1)C1CCCCC1 (stereo unspecified) ... 6.53
CN(C)CCCCOC(=O)C(C)(c1ccccc1)C1CCCCC1 (stereo unspecified) ... 7.39
CCN(CC)CCCCOC(=O)C(C)(c1ccccc1)C1CCCCC1 (stereo unspecified) ... 6.95
CCN(CC)CCOC(=O)C(C)(c1ccccc1)C1CCCCC1 (stereo unspecified) ... 8.40

# input Report pKi for CN(C)CCCOC(=O)C(C)(c1ccccc1)C1CCCCC1 (stereo unspecified) please.
# output 8.72

* * *

# Experimental Target: UniProt:P20309
# Sequence (P20309 whole entry): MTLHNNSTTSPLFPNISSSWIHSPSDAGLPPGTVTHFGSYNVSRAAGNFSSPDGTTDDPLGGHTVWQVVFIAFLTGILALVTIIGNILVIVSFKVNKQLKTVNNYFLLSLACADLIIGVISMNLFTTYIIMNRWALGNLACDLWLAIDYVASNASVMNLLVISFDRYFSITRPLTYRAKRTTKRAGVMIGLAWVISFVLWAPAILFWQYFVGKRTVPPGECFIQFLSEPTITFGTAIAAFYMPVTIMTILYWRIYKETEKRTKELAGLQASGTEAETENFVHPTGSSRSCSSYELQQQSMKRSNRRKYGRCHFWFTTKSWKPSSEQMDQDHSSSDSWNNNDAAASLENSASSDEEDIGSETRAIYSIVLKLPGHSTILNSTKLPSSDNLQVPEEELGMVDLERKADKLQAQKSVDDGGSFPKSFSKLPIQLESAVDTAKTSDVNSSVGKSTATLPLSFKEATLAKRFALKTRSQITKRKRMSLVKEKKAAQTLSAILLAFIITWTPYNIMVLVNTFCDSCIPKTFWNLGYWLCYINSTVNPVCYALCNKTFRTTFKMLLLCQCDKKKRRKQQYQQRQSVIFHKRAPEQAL
# Procedure Summary: Antimuscarinic potency and subset specificity was characterised by its inhibition of the [3H]NMS Muscarinic acetylcholine receptor M3 subtype
Parameter: Ki (nM)
Number only, in nM; omit the unit.

# input Suppose we examine the compound CCN(CC)CCOC(=O)C(C)(c1ccccc1)C1CCCCC1 (stereo unspecified) ; what Ki value has been reported?
# output 9.9

* * *

# Experimental Target: Muscarinic acetylcholine receptor M1 (Homo sapiens)
# Procedure Summary: Antimuscarinic potency and subset specificity was characterised by inhibition of the [3H]NMS Binding to Muscarinic acetylcholine receptor M1 subtype
Parameter: pKi
Friendly reminder that pKi comes from taking -log10 of the concentration in mol/L.

# input Data request, read-out pKi, for CCN(CC)CCOC(=O)C(C)(c1ccccc1)c1ccccc1 [APROFENE]
# output 8.68
